measurement.protocol: in vivo
experimental.setup: male, Sprague-Dawley, rat, po, 8 g/kg, MRT, model group (MG, myocardial ischemia) rats, oral administration of QSKL, plasma, mean ± SD, n = 6
value.type: MRT

>  <compound>
O=C(/C=C/c1ccc(O[C@@H]2O[C@H](CO)[C@@H](O)[C@H](O)[C@H]2O)cc1)c1ccc(O)cc1O [isoliquiritin]

>  <endpoint.result>
10.2 h

$$$$
>  <compound>
COCC12CN(C)C3C4C(OC)C1C3(C(OC)CC2O)C1CC2(O)C(OC)C(O)C4(O)C1C2OC(=O)c1ccccc1 (stereo not shown) [benzoylmesaconine]

>  <endpoint.result>
13.7 h

$$$$
>  <compound>
COCC12CCC(OC)C34C5CC6(O)C(OC)C(O)C(O)(C5C6OC(=O)c5ccccc5)C(C(OC)C13)C4N(C)C2 (stereo not shown) [benzoylhypaconine]

>  <endpoint.result>
23.6 h

$$$$
>  <compound>
COC[C@@]12CC[C@H](OC)[C@]34C(C([C@H](OC)[C@H]13)[C@]1(OC(C)=O)[C@H]3[C@@H](OC(=O)c5ccccc5)[C@](O)(C[C@H]34)[C@@H](OC)[C@@H]1O)N(C)C2 [hypaconitine]

>  <endpoint.result>
11.9 h

$$$$

====

The molecules listed here are annotated with their half-life.
measurement.protocol: in vivo
experimental.setup: male, Sprague-Dawley, rat, po, 8 g/kg, t1/2, model group (MG, myocardial ischemia) rats, oral administration of QSKL, plasma, mean ± SD, n = 6

>  <molecule>
COCC12CN(C)C3C4C(OC)C1C3(C(OC)CC2O)C1CC2(O)C(OC)C(O)C4(O)C1C2OC(=O)c1ccccc1 (stereo not shown) [benzoylmesaconine]

>  <result.units>
h

>  <half-life>
9.77

$$$$
>  <molecule>
COC[C@@]12CC[C@H](OC)[C@]34C(C([C@H](OC)[C@H]13)[C@]1(OC(C)=O)[C@H]3[C@@H](OC(=O)c5ccccc5)[C@](O)(C[C@H]34)[C@@H](OC)[C@@H]1O)N(C)C2 [hypaconitine]

>  <result.units>
h

>  <half-life>
7.45

$$$$
>  <molecule>
O=C(/C=C/c1ccc(O[C@@H]2O[C@H](CO)[C@@H](O)[C@H](O)[C@H]2O)cc1)c1ccc(O)cc1O [isoliquiritin]

>  <result.units>
h

>  <half-life>
8.28

$$$$
>  <molecule>
COCC12CCC(OC)C34C5CC6(O)C(OC)C(O)C(O)(C5C6OC(=O)c5ccccc5)C(C(OC)C13)C4N(C)C2 (stereo not shown) [benzoylhypaconine]

>  <result.units>
h

>  <half-life>
16.3

$$$$

====

measurement.protocol: Pharmacokinetic study in sham and myocardial ischemia model rats after a single oral dose of QSKL (UHPLC-psMS/MS of plasma, non-compartmental analysis)
experimental.setup: male, Sprague-Dawley, rat, plasma, po, 8 g/kg, Cmax, sham rats, single oral dose of 8.0 g/kg QSKL, mean ± SD, n = 6
value.type: Cmax (ng/mL)

>  <smiles.entry>
CC1(C)[C@@H](O)CC[C@]2(C)[C@H]3C(=O)C=C4[C@@H]5C[C@@](C)(C(=O)O)CC[C@]5(C)CC[C@@]4(C)[C@]3(C)CC[C@@H]12

>  <value.type>
Cmax

>  <endpoint.result>
230

$$$$

FYI, the data here is from paper PMC6150229.
